Reported protein stability index by item:
B1: FBXO3 (parent)
chain: DEEERRRRVFDVPIRRRRCSRLF

# Variants of: B1
# run-description: protein stability index of a GFP-peptide fusion (GPS, HEK-293T) (PSI 1-6); higher = more stable;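 also: lentivirally expressed fusions sorted by FACS into six bins by GFP to DsRed ratio, PSI derived from sequencing read proportions per bin multiplied by bin number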
# measurement-conditions: c terminus: native
measured-quantity: protein stability index

>>> df
    alteration  result
 0        D11V    1.99
 1         E4F    2.13
 2         D1S    1.85
 3         R8M    2.89
 4        F10M    3.87
 5         D1G    1.91
 6        I14E    2.46
 7        F23W    3.56
 8        V12T    2.75
 9        V12N    2.28
10         R7Y    2.51
11        C19I    3.49
12         D1K    2.27
13         R5Y    2.85
14         V9C    2.74
15        R21Q    3.62
16         E4K    1.98
17         E2D    3.08
18         E3D    2.63
19         R7G    3.64
20        F23H    2.77
21         E4H    1.99
22        I14D    2.14
23        R16Y    1.72
24        F10N    4.45
25        S20K    2.69
26         D1P    2.55
27        R16M    2.21
28         V9T    3.65
29        P13W    2.87
30        R18W    2.31
31        C19E    1.83
32        S20Y    2.22
33         D1V    2.34
34        F10H    4.08
35         R5F    3.24
36         R7H    3.06
37        R21L     2.6
38        R18Y    1.95
39         R5Q     4.1
40        L22N    2.09
41         E4N    1.92
42        V12Y    2.78
43        D11E    2.68
44        F10P    4.32
45        R18E    2.38
